- Tested on: SW684
- Test name: relative viability vs DMSO control (72 h) (fraction); higher = more viable cells
- Setup conditions: 0.00017 µM
Measured property: relative viability
Keep it simple and answer with nothing but the number.

Compound	Tested system	relative viability
O=C(Cc1ccc(-c2ccc(OCCN3CCOCC3)cc2)cn1)NCc1ccccc1	SW684	1.13
CC(C)NC(=O)C1CCC(n2c(NC(=O)c3ccc(F)cc3)nc3ccc(CN4CCC(C(C)(C)O)CC4)cc32)CC1 (stereo not drawn)	SW684	1.17

Lab note: next compound to report on.
Item CC1(C)CNc2cc(NC(=O)c3cccnc3NCc3ccncc3)ccc21 has what recorded relative viability? 1.04

---

- Test system: SW684
- Test name: relative viability vs DMSO control (72 h) (fraction); higher = more viable cells
- Setup conditions: 0.00457 µM
Measured property: relative viability
Keep it simple and answer with nothing but the number.

Item CNC(=O)c1ccc(-c2cnc3ncc(Cc4ccc5ncccc5c4)n3n2)cc1F has what recorded relative viability? 1.15

---

- System: VA-ES-BJ
- Test name: relative viability vs DMSO control (72 h) (fraction); higher = more viable cells
- Setup conditions: 0.00457 µM
Counter-ions that a name gives are not always drawn.
Measured property: relative viability
Keep it simple and answer with nothing but the number.

Illustrative cases are given below, each with its answer.
Compound	relative viability
CC(=O)Nc1cccc(-n2c(=O)n(C3CC3)c(=O)c3c(Nc4ccc(I)cc4F)n(C)c(=O)c(C)c32)c1	0.961
Cc1ccc(F)c(NC(=O)Nc2ccc(-c3cccc4[nH]nc(N)c34)cc2)c1	1.07
CNC(=O)c1cc(Oc2ccc(NC(=O)Nc3ccc(Cl)c(C(F)(F)F)c3)c(F)c2)ccn1	1.08

Lab note: next compound to report on.
Item COc1cccc2c1C(=O)c1c(O)c3c(c(O)c1C2=O)C[C@@](O)(C(=O)CO)C[C@@H]3O[C@H]1C[C@H](N)[C@H](O)[C@H](C)O1 [Doxorubicin Hydrochloride] has what recorded relative viability? 0.99

---

# maps each entry to its relative viability
- Tested on: SW1353
- Test name: relative viability vs DMSO control (72 h) (fraction); higher = more viable cells
- Setup conditions: 0.00017 µM

Illustrative cases are given below, each with its answer.
Compound	Measured property	Result
CC(C)N1CCN(Cc2cnc(-c3cc(-c4cccc5[nH]ccc45)cc4[nH]ncc34)o2)CC1 [Nemiralisib]	relative viability	1.07
CCCS(=O)(=O)Nc1ccc(F)c(C(=O)c2c[nH]c3ncc(-c4ccc(Cl)cc4)cc23)c1F [Vemurafenib]	relative viability	0.958
C[C@]1(O)C[C@@H](c2nc(-c3ccc4ccc(-c5ccccc5)nc4c3)c3c(N)nccn32)C1 [Linsitinib]	relative viability	1.03
Nc1cc(C(F)(F)F)c(-c2cc(N3CCOCC3)nc(N3CCOCC3)n2)cn1 [Buparlisib]	relative viability	0.984
CNC(=O)c1ccc(-c2cnc3ncc(Cc4ccc5ncccc5c4)n3n2)cc1F [Capmatinib]	relative viability	0.958

Request - read-out relative viability | tested on SW1353 | compound CN1CCC(COc2cnc(-c3cccc(Cn4nc(-c5cccc(C#N)c5)ccc4=O)c3)nc2)CC1 [Tepotinib] 1.02

Request - read-out relative viability | tested on SW1353 | compound CCc1cc2c(cc1N1CCC(N3CCOCC3)CC1)C(C)(C)c1[nH]c3cc(C#N)ccc3c1C2=O [Alectinib] 0.987

Request - read-out relative viability | tested on SW1353 | compound CC[C@H](Nc1ncnc2[nH]cnc12)c1nc2cccc(F)c2c(=O)n1-c1ccccc1 [Idelalisib] 1.06

Request - read-out relative viability | tested on SW1353 | compound CC(C)NC(=O)C1CCC(n2c(NC(=O)c3ccc(F)cc3)nc3ccc(CN4CCC(C(C)(C)O)CC4)cc32)CC1 (centres undefined) [Belizatinib] 1.02

Request - read-out relative viability | tested on SW1353 | compound CC1(C)CNc2cc(NC(=O)c3cccnc3NCc3ccncc3)ccc21 [Motesanib] 0.993

Request - read-out relative viability | tested on SW1353 | compound C[C@@H](c1ccc2nccn2c1)n1nnc2ncc(-c3cnn(C)c3)nc21 [Volitinib] 1.01

Request - read-out relative viability | tested on SW1353 | compound Cn1cnc2c(F)c(Nc3ccc(Br)cc3F)c(C(=O)NOCCO)cc21 [Binimetinib] 1.06

Request - read-out relative viability | tested on SW1353 | compound Cn1cc(-c2cc3c(N4CCN(c5ncc([C@@](C)(N)c6ccc(F)cc6)cn5)CC4)ncnn3c2)cn1 [Avapritinib] 0.96

Request - read-out relative viability | tested on SW1353 | compound CC(C)(C)c1cc(NC(=O)Nc2ccc(-c3cn4c(n3)sc3cc(OCCN5CCOCC5)ccc34)cc2)no1 [Quizartinib] 1.02

---

- System: MES-SA
- Test name: standardised AUC of viability dose-response curve (72 h) (fraction (0-1)); higher = less growth inhibition (more resistant)
Measured property: standardised AUC
Keep it simple and answer with nothing but the number.

Compound structure	standardised AUC
C[C@@H](c1ccc2nccn2c1)n1nnc2ncc(-c3cnn(C)c3)nc21	0.994

Item CC1(C)CNc2cc(NC(=O)c3cccnc3NCc3ccncc3)ccc21 has what recorded standardised AUC? 0.995

Item O=C(Nc1cnn2ccc(N3CCC[C@@H]3c3cc(F)ccc3F)nc12)N1CC[C@H](O)C1 has what recorded standardised AUC? 0.982

Item C[C@@H]1CCN(C(=O)CC#N)C[C@@H]1N(C)c1ncnc2[nH]ccc12 has what recorded standardised AUC? 0.989

---

- System: KHOS-240S
- Test name: relative viability vs DMSO control (72 h) (fraction); higher = more viable cells
- Setup conditions: 10 µM
Structures can show the parent of a compound that is named as a salt.
// NB: equality with 0.5 counts as no (0); only relative viability strictly below is yes (1)

Worked examples follow.
Compound	Qualitative label
COc1cc2c(Oc3ccc4[nH]c(C)cc4c3F)ncnc2cc1OCCCN1CCCC1	no (0)
COc1c(OCCCN2CCOCC2)ccc2c1N=C(NC(=O)c1cnc(N)nc1)N1CCN=C21	yes (1)

Is it true that relative viability reported for CCN1CCN(Cc2ccc(Nc3ncc(F)c(-c4cc(F)c5nc(C)n(C(C)C)c5c4)n3)nc2)CC1 is less than 0.5? no (0)

Is it true that relative viability reported for COc1cccc2c1C(=O)c1c(O)c3c(c(O)c1C2=O)C[C@@](O)(C(=O)CO)C[C@@H]3O[C@H]1C[C@H](N)[C@H](O)[C@H](C)O1 [Doxorubicin Hydrochloride] is less than 0.5? yes (1)

Is it true that relative viability reported for CN1CCN(c2ccc3nc(-c4c(N)c5c(F)cccc5[nH]c4=O)[nH]c3c2)CC1 is less than 0.5? yes (1)

Is it true that relative viability reported for CN1CCC(COc2cnc(-c3cccc(Cn4nc(-c5cccc(C#N)c5)ccc4=O)c3)nc2)CC1 is less than 0.5? no (0)

---

- Tested on: SK-ES-1
- Test name: relative viability vs DMSO control (72 h) (fraction); higher = more viable cells
- Setup conditions: 0.1235 µM
Measured property: relative viability

Illustrative cases are given below, each with its answer.
Compound structure	Result
CC(C)(C)c1cc(NC(=O)Nc2ccc(-c3cn4c(n3)sc3cc(OCCN5CCOCC5)ccc34)cc2)no1	1.08
COc1cc2/c(=N/c3ccc(Br)cc3F)nc[nH]c2cc1OCC1CCN(C)CC1	1.01
CNC(=O)c1ccc(-c2cnc3ncc(Cc4ccc5ncccc5c4)n3n2)cc1F	1.09
COc1cc2c(Oc3ccc4[nH]c(C)cc4c3F)ncnc2cc1OCCCN1CCCC1	1.06
CCc1cc2c(cc1N1CCC(N3CCOCC3)CC1)C(C)(C)c1[nH]c3cc(C#N)ccc3c1C2=O	1.06

Item Cc1cnc(Nc2ccc(OCCN3CCCC3)cc2)nc1Nc1cccc(S(=O)(=O)NC(C)(C)C)c1 has what recorded relative viability? 0.859

Item O=C(Nc1cnn2ccc(N3CCC[C@@H]3c3cc(F)ccc3F)nc12)N1CC[C@H](O)C1 has what recorded relative viability? 1

---

- Tested on: SW982
- Test name: relative viability vs DMSO control (72 h) (fraction); higher = more viable cells
- Setup conditions: 0.04115 µM
// NB: equality with 1 counts as criterion not met; only relative viability strictly below is criterion met

Is it true that relative viability reported for Cc1nc(NC(=O)N2CCC[C@H]2C(N)=O)sc1-c1ccnc(C(C)(C)C(F)(F)F)c1 is less than 1? criterion met

Is it true that relative viability reported for C=CC(=O)N1CCC[C@@H](n2nc(-c3ccc(Oc4ccccc4)cc3)c3c(N)ncnc32)C1 is less than 1? criterion not met

Is it true that relative viability reported for CC1(C)CNc2cc(NC(=O)c3cccnc3NCc3ccncc3)ccc21 is less than 1? criterion met

Is it true that relative viability reported for CC(C)N1CCN(Cc2cnc(-c3cc(-c4cccc5[nH]ccc45)cc4[nH]ncc34)o2)CC1 is less than 1? criterion met

Is it true that relative viability reported for CO[C@H]1C[C@@H]2CC[C@@H](C)[C@@](O)(O2)C(=O)C(=O)N2CCCC[C@H]2C(=O)O[C@H]([C@H](C)C[C@@H]2CC[C@@H](OP(C)(C)=O)[C@H](OC)C2)CC(=O)[C@H](C)/C=C(\C)[C@@H](O)[C@@H](OC)C(=O)[C@H](C)C[C@H](C)/C=C/C=C/C=C/1C is less than 1? criterion met
